FYI, the data here is from patent US20200354457A1.

target: T1, cynomolgus LAG3 on transiently transfected HEK293F cells (cynomolgus); experiment: flow cytometry on HEK293F cells transfected with cyno LAG3, 10 µg/ml
T1 construct: whole, on cells; also called cyno LAG3; cynomolgus Lag3-positive HEK cells
Readout label: Signal intensity (Geo Mean)
Give bare numbers, in Geo Mean.

Examples with their reported Signal intensity (Geo Mean) follow.
Binder | Recorded value
bivalent 17D7 aVH-Fc (Fc fusion) EVQLVESGGGLVQPGGSLRLSCAASGFNIKDTCIGWVRRAPGKGTELVAEICTDIGYTRYADSVKGRFTISADTSKNTAYLQMNSLRAEDTAVYYCAAGEGSSGFHYWGQGTTVTVSSGGGGSGGGGSDKTHTCPPCPAPEAAGGPSVFLFPPKPKDTLMISRTPEVTCVVVDVSHEDPEVKFNWYVDGVEVHNAKTKPREEQYNSTYRVVSVLTVLHQDWLNGKEYKCKVSNKALGAPIEKTISKAKGQPREPQVYTLPPSRDELTKNQVSLTCLVKGFYPSDIAVEWESNGQPENNYKTTPPVLDSDGSFFLYSKLTVDKSRWQQGNVFSCSVMHEALHNHYTQKSLSLSPGK | 1980
bivalent 19G3 aVH-Fc (Fc fusion) EVQLVESGGGLVQPGGSLRLSCAASGFNIKYQCIGWVRRAPGKGTELVAEICSYDGYTRYADSVKGRFTISADTSKNTAYLQMNSLRAEDTAVYYCAAEESVEGFIYWGQGTTVTVSSGGGGSGGGGSDKTHTCPPCPAPEAAGGPSVFLFPPKPKDTLMISRTPEVTCVVVDVSHEDPEVKFNWYVDGVEVHNAKTKPREEQYNSTYRVVSVLTVLHQDWLNGKEYKCKVSNKALGAPIEKTISKAKGQPREPQVYTLPPSRDELTKNQVSLTCLVKGFYPSDIAVEWESNGQPENNYKTTPPVLDSDGSFFLYSKLTVDKSRWQQGNVFSCSVMHEALHNHYTQKSLSLSPGK | 2560
bivalent 9B4 aVH-Fc (Fc fusion) EVQLVESGGGLVQPGGSLRLSCAASGFNIKDTCIGWVRRAPGKGTELVAEICQDIGYTRYADSVKGRFTISADTSKNTAYLQMNSLRAEDTAVYYCAAVEVAEYFEYWGQGTTVTVSSGGGGSGGGGSDKTHTCPPCPAPEAAGGPSVFLFPPKPKDTLMISRTPEVTCVVVDVSHEDPEVKFNWYVDGVEVHNAKTKPREEQYNSTYRVVSVLTVLHQDWLNGKEYKCKVSNKALGAPIEKTISKAKGQPREPQVYTLPPSRDELTKNQVSLTCLVKGFYPSDIAVEWESNGQPENNYKTTPPVLDSDGSFFLYSKLTVDKSRWQQGNVFSCSVMHEALHNHYTQKSLSLSPGK | 2060

Let's switch to this binder now.
## Task Give its Signal intensity (Geo Mean) value. Item: bivalent 21B11 aVH-Fc (Fc fusion) EVQLVESGGGLVQPGGSLRLSCAASGFNIKDTCIGWVRRAPGKGTELVAEICQDIGYTRYADSVKGRFTISADTSKNTAYLQMNSLRAEDTAVYYCAADESVDNFKYWGQGTTVTVSSGGGGSGGGGSDKTHTCPPCPAPEAAGGPSVFLFPPKPKDTLMISRTPEVTCVVVDVSHEDPEVKFNWYVDGVEVHNAKTKPREEQYNSTYRVVSVLTVLHQDWLNGKEYKCKVSNKALGAPIEKTISKAKGQPREPQVYTLPPSRDELTKNQVSLTCLVKGFYPSDIAVEWESNGQPENNYKTTPPVLDSDGSFFLYSKLTVDKSRWQQGNVFSCSVMHEALHNHYTQKSLSLSPGK
## Result 2750
